Listed here: items and their measured TGI.
Tested on: TK-10 renal
method: NCI tumour cell line growth inhibition, 48 h
Give your result in µM as a bare value.

CC(=O)OC1CC[C@@]2(C)C(CC[C@]3(C)C2CC=C2[C@@H]4C(C)[C@H](C)CCC4(C)CCC23C)[C@@]1(C)C(=O)O (some centres undefined) = 30.7
Cc1ccc(O)c(C2=CC(c3cccc(Br)c3)SC(N)=N2)c1 (centres undefined) = 46.1
C=CCc1cc(C(Cc2ccccc2)NC(C)C)cc(OCc2ccccc2)c1OCc1ccccc1 (centres undefined) = 30.8
COc1ccc2[nH]c3c(C)cc([N+](=O)[O-])c(C)c3c2c1 = 76.5

Here's the next entry for you.
What value of measured TGI is listed for O=C(C[P+](c1ccccc1)(c1ccccc1)c1ccccc1)C[P+](c1ccccc1)(c1ccccc1)c1ccccc1 ?
1.09

###

Known TGI of a selection of compounds
Tested on: LOX IMVI melanoma
method: NCI tumour cell line growth inhibition, 48 h

Guide cases for TGI, answers given:
COc1ccc(/C=C\c2cc(OC)c(OC)c(OC)c2)cc1OCC(=O)Nc1ccc2nc(C)sc2c1 = 9 µM
Nc1nc(=O)n([C@@H]2CS[C@H](CO)O2)cc1F = > 100 µM
Cc1cc(O)c(/C=N/C(=S)Nc2ccccc2)c(=O)o1 = > 100 µM

Field: next compound
For the compound O=C(Nc1nnc(-c2c(Cl)c(Cl)c(Cl)c(Cl)c2-c2nc3cc(C(=O)c4ccccc4)ccc3[nH]2)o1)c1ccc(Cl)cc1 , what TGI is on record?
> 100 µM

###

Tested on: SF-295 CNS
method: NCI tumour cell line growth inhibition, 48 h; in the data active means GI50 below about 0.43 µM; inactive means the rest
API: response.call in T = active, F = inactive

For orientation, consider the following solved cases.
Cc1cn(-c2ccc(S(C)(=O)=O)cc2)c(-c2ccc(Cl)cc2)n1 = F
Cc1ccc(-c2nc([P+](c3ccccc3)(c3ccccc3)c3ccccc3)c(Nc3ccccc3)o2)cc1 = F
CCOC(=O)/C=C/C(=O)[C@H](CC(C)C)NC(=O)[C@H](Cc1ccccc1)NC(=O)OCc1ccccc1 = F
C#COc1cccc(Nc2ncnc3cc(NC(=O)[C@H](C)Cl)ccc23)c1 = F
CN(C)c1ccc(/C=c2/c3ccccc3n3c2c2cc(F)ccc2[n+]3C)cc1 = F
COc1ccc(Cn2cc3c(c2-c2ccccc2)CCc2cnoc2-3)cc1N = T

Kindly provide the recorded test outcome for the following molecule: CC1=C(C)C2(O)C(=C(C)C1=O)/C(=C(/O)c1ccccc1)c1nc3ccccc3n12 (centres undefined)
F

Now consider Cc1c(C(N)=O)sc2c1c(=O)n(Cc1ccccc1)c1nnc(-c3ccc(Br)cc3)n21 .
F

Again, but for CCOC(=O)c1ccc2c(c1)[n+](=O)c(C(C)=O)c(C(F)(F)F)n2[O-]
F

###

Test system: TK-10 renal
method: NCI tumour cell line growth inhibition, 48 h
Documented TGI across a set of molecules

Study these solved cases before continuing.
Cc1ccc(-c2nc([P+](c3ccccc3)(c3ccccc3)c3ccccc3)c(Nc3ccccc3)o2)cc1 = 2.78 µM
CC[N+](C)(CC)CC(C)(C)C(=O)/C=C/c1ccc(/C=C/C(=O)C(C)(C)C[N+](C)(CC)CC)cc1 = > 100 µM
O=C(NNS(=O)(=O)c1ccccc1)c1cccnc1 = > 100 µM
O=C1CCCCC/C1=C\c1ccccc1 = > 100 µM
C[N+]1(CCC[N+]2(C)CC3C4C=CC(CC4)C3C2)CCOCC1 (configuration not stated) = > 100 µM
COc1ccccc1NCc1cccc2c(=O)c3ccc(Cl)cc3oc12 = > 100 µM

// switching to the query molecule
Value wanted: TGI (TK-10 renal) of entry O=c1[nH]c(=O)n(C2OC(CO)C(O)C2O)cc1OCC(F)(F)F (configuration not stated)
> 100 µM

###

System: OVCAR-3 ovarian
method: NCI tumour cell line growth inhibition, 48 h
Listed below: GI50 values for each entry.

CC(=O)OCCOCN1C(=O)NC(=O)/C(=C/c2cccc(OCc3ccccc3)c2)C1=O = 50.3 µg/mL
CC1=C(C)C2(O)C(=C(C)C1=O)/C(=C(/O)c1ccccc1)c1nc3ccccc3n12 (stereo unspecified) = 12600 nM
O=C(C[P+](c1ccccc1)(c1ccccc1)c1ccccc1)C[P+](c1ccccc1)(c1ccccc1)c1ccccc1 = 296 nM
O=C(c1ccccc1)n1c(-c2ccccc2)cs/c1=N\S(=O)(=O)c1ccc(N2N=C3c4ccccc4CC3C2c2cccs2)cc1 (stereo unspecified) = 55200 nM
NC(=Nc1ccc(N)cc1)C(N)=Nc1ccc(N)cc1 = 33300 nM
c1ccc([As]=[As]c2ccccc2)cc1 (stereo unspecified) = 676 nM

// query GI50 value for entry Nc1nc(=O)n([C@@H]2CS[C@H](CO)O2)cc1F
> 100000 nM

Also COc1ccc(/C=C\c2cc(OC)c(OC)c(OC)c2)cc1OCC(=O)Nc1ccc2nc(C)sc2c1 ?
6320 nM

Next record, please: COc1ccc(C2C=C(c3ccc(Cl)cc3)N=C3SC=C(C)N32)c(Br)c1 (stereo unspecified)
2360 nM

Moving on to the next compound: Cc1cn(-c2ccc(S(C)(=O)=O)cc2)c(-c2ccc(Cl)cc2)n1
> 100000 nM

Another: COc1cc2c(=O)n(CCN(C)C)c3c4cc5c(cc4ccc3c2cc1OC)OCO5
583 nM

Another compound: COc1cc(C2C3=C(COC3=O)N(CCO)c3cc4c(cc32)OCO4)cc(OC)c1O (stereo unspecified)
982 nM

Quick one: Cc1ccc(-c2nc([P+](c3ccccc3)(c3ccccc3)c3ccccc3)c(Nc3ccccc3)o2)cc1
288 nM

Same read-out for O=C(/C=C/C12c3ccccc3C(c3ccccc31)C1C(=O)NC(=O)C12)c1ccc(Cl)cc1 (stereo unspecified) ?
1630 nM

What do we get for NC(=S)N=Nc1c(O)c2ccccc2c2ccccc12 ?
3020 nM

Here is the next compound: O=C(CC(=O)c1cccc(Cl)c1)c1cccc(Cl)c1
1670 nM

###

Reported TGI values follow for various compounds
Tested on: HCC-2998 colon
method: NCI tumour cell line growth inhibition, 48 h
Record the value in µM, omitting the unit from your answer.

Example entries and their recorded answers appear below.
CC1CN=C(c2cccc(-c3nc(-c4cccc(C5=NCC(C)N5)c4)nc(N(C)C)n3)c2)N1 (stereo not given) = 2.39
COc1ccc2c3c1OC1C34CCN(C)C(C2)C4=CC(I)C1(OC)OC (stereo not given) = 21.9
Cc1ccc(-c2nc(-c3cn(C)c4ncccc34)cs2)cc1 = 22.8

Okay, next one:
Tell me reported TGI for CCOC(=O)/C=C/C(=O)[C@H](CC(C)C)NC(=O)[C@H](Cc1ccccc1)NC(=O)OCc1ccccc1 , tested with HCC-2998 colon.
30.1

###

Tested on: RPMI-8226 leukemia
method: NCI tumour cell line growth inhibition, 48 h
reportedProperty: TGI (µM)
Give a bare numeral; the unit µM is implied.

CC(C)(C)OC(=O)CN1CCN(CC(=O)N2CCN(C(=O)OCc3ccccc3)CC2)CCN(CC(=O)OC(C)(C)C)CCN(CC(=O)N2CCN(C(=O)OCc3ccccc3)CC2)CC1 = 2.91
ClCc1cccc(CSc2ncnc3c2ncn3Cc2cccc(CCl)c2)c1 = 4.86
COc1ccc(Nc2nc3cc(N)cc(N)c3nc2-c2ccccc2)cc1OC = 28.3

Form field: TGI recorded for O=C(Nc1cc(Oc2cc(F)c(NC(=O)C3(C(=O)Nc4ccc(F)cc4)CC3)cc2F)ccn1)C1CC1 with RPMI-8226 leukemia (enter value)
6.51

Next compound up: CC1(C)CC(=O)c2c(nc3c(ccc4ccccc43)c2-c2ccc(NC(=O)CCCCC(=O)Nc3ccc(-c4c5c(nc6c4ccc4ccccc46)CC(C)(C)CC5=O)cc3)cc2)C1
71.4

###

Tested on: SK-MEL-28 melanoma
method: NCI tumour cell line growth inhibition, 48 h
# GI50 values compiled below

Example cases with answers are listed next.
COc1ccc(/C=C\c2cc(OC)c(OC)c(OC)c2)cc1OCC(=O)Nc1ccc2nc(C)sc2c1 = 3.22 µM
Cc1c(C(N)=O)sc2c1c(=O)n(Cc1ccccc1)c1nnc(-c3ccc(Br)cc3)n21 = 4.09 µM
Cc1cc(Nc2cc(N3CCN(C)CC3)nc(Sc3ccc(NC(=O)C4CC4)cc3)n2)n[nH]1 = 3.47 µM
O=S(=O)(Nc1ccc(F)c(Cl)c1)c1ccc(-c2cnc(C3CC3)o2)cc1 = 1.73 µM
Nc1nc(=O)n([C@@H]2CS[C@H](CO)O2)cc1F = > 100 µM
COc1cc(NCCN=C(N)NC(N)=NC(C)C)c2ncccc2c1 = 14.1 µM

Endpoint output: GI50 of N#Cc1c(N)nc(NCc2ccccc2)c(C#N)c1-c1ccc(Cl)cc1Cl . Value?
> 100 µM

###

System: SK-MEL-2 melanoma
method: NCI tumour cell line growth inhibition, 48 h
reportedProperty: TGI (µM)
Field: numeric (µM). Do not append units.

CCOC(=O)/C=C/C(=O)[C@H](CC(C)C)NC(=O)[C@H](Cc1ccccc1)NC(=O)OCc1ccccc1 = 27.1

As a next step, examine the molecule that follows.
Data request, read-out TGI, for COc1cc2c(=O)n(CCN(C)C)c3c4cc5c(cc4ccc3c2cc1OC)OCO5
1.94
